# Test system: VDR homodimer (NR concentration 270 nM)
# Test Protocol: PBM binding z-score (relative to random genomic background probes); higher = stronger binding; sequences stand for … in GC…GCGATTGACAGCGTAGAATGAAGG
PBM binding z-score listing for selected sequences.
Property Name: PBM binding z-score

Seq String | Property Name | Measured
ATCTCTAGGTAAAGATATTTCAGTGAATGCAAAT | PBM binding z-score | -0.0481
CCGACTGGGGCAAGGTTACCAGAACGCACAGCCA | PBM binding z-score | -0.475
CGTCAAAGTTCAAGGTAACATAACAGAAAGCAGC | PBM binding z-score | 2.9
TTGAGTAGGTTACCAATGGGGCATTCAGCTTTCT | PBM binding z-score | 0.0569
ATATATAGGTTAGCTGGGGTCATTCAGACTAGGC | PBM binding z-score | 5.64
TTAACAAGGTGAAGGTCGTTGATCCCTCTGTAGA | PBM binding z-score | 0.715
TCTTGTAGATCAACAGGAGGTCAAGAAAGATCGA | PBM binding z-score | 0.803
CCTACTGAGCCACGAAAGGTCATTGATTCAGTGA | PBM binding z-score | 2.9
GCGACTGGGGCAAAGCAGGTTGCCATAAGGTTGG | PBM binding z-score | -0.513
CAAACTAGGTCACAGAGGTCTAAGTCCGTGCGTA | PBM binding z-score | 1.87
TCGAGTAGGTTAGTCGGGGTATTCAGCCAACATA | PBM binding z-score | -0.161
ATATGAAGGTTAAGGGTCATTCAGGTTGGTTCGC | PBM binding z-score | 4.67
